Tested on: Cephalothinsensitive E. coli (2 strains), Kl. pneumoniae (1 strain) and Pr. mirabilis (2 strains)
Test: MIC, two-fold serial agar dilution, group (G-)-Ia
Assay type: cell-based
Details: 5 strains, Mueller-Hinton agar, read-out: Geometric Mean of MIC
measuredParameter: MIC (µg/mL)
# unit: µg/mL | format: bare number

Use the examples below as a reference point.
compound | unitsText | MIC
CO/N=C(\C(=O)NC1C(=O)N2C(C(=O)[O-])=C(C[n+]3ccc4sc(N)nc4c3)CSC12)c1csc(N)n1 (stereo not drawn) | µg/mL | 0.01
CO/N=C(\C(=O)NC1C(=O)N2C(C(=O)[O-])=C(C[n+]3ccc4scnc4c3)CS[C@H]12)c1csc(N)n1 (stereo partly drawn) | µg/mL | 0.02
Nc1nc(/C(=N/OC2(C(=O)O)CCC2)C(=O)NC2C(=O)N3C(C(=O)[O-])=C(C[n+]4ccc5scnc5c4)CS[C@H]23)cs1 (stereo partly drawn) | µg/mL | 0.023
CCO/N=C(\C(=O)NC1C(=O)N2C(C(=O)[O-])=C(C[n+]3ccc4scnc4c3)CSC12)c1csc(N)n1 (stereo not drawn) | µg/mL | 0.035
CO/N=C(\C(=O)NC1C(=O)N2C(C(=O)[O-])=C(C[n+]3ccc4sc(C(=O)O)nc4c3)CS[C@H]12)c1csc(N)n1 (stereo partly drawn) | µg/mL | 0.014
Cc1nc2c[n+](CC3=C(C(=O)[O-])N4C(=O)C(NC(=O)/C(=N\OC5(C(=O)O)CCC5)c5csc(N)n5)[C@H]4SC3)ccc2s1 (stereo partly drawn) | µg/mL | 0.027

Lab book: MIC of Nc1nc(/C(=N/OC2(C(=O)O)CCC2)C(=O)NC2C(=O)N3C(C(=O)[O-])=C(C[n+]4ccc5sc(N)nc5c4)CS[C@H]23)cs1 (stereo partly drawn) noted as 0.015

Lab book: MIC of CO/N=C(\C(=O)NC1C(=O)N2C(C(=O)[O-])=C(C[n+]3ccc4sc(C=O)nc4c3)CSC12)c1csc(N)n1 (stereo not drawn) noted as 0.016

Lab book: MIC of CO/N=C(\C(=O)NC1C(=O)N2C(C(=O)[O-])=C(C[n+]3ccc4sc(C)nc4c3)CSC12)c1csc(N)n1 (stereo not drawn) noted as 0.007

* * *

Reported values of half-life for individual entries
Experiment: Mouse blood levels after single intramuscular injection
Assay type: in vivo, mice
Conditions: in vivo, im, 20 mg/kg
# unit: min | format: bare number

compound | testResult
Nc1nc(/C(=N/OC2(C(=O)O)CCC2)C(=O)NC2C(=O)N3C(C(=O)[O-])=C(C[n+]4ccc5sc(N)nc5c4)CS[C@H]23)cs1 (stereo partly drawn) [Ik] | 22

Lab book: half-life of CO/N=C(\C(=O)NC1C(=O)N2C(C(=O)[O-])=C(C[n+]3ccc4sc(N(C)C)nc4c3)CS[C@H]12)c1csc(N)n1 (stereo partly drawn) [Iu] noted as 19

Lab book: half-life of CO/N=C(\C(=O)NC1C(=O)N2C(C(=O)[O-])=C(C[n+]3ccc4sc(C(=O)O)nc4c3)CS[C@H]12)c1csc(N)n1 (stereo partly drawn) [Iv] noted as 19

* * *

Assay: Mouse blood levels after single intramuscular injection
Format: in vivo, mice
Settings: in vivo, im, 20 mg/kg
measuredParameter: concentration at 10 min (ng/mL)
# unit: ng/mL | format: bare number

compound | unitsText | concentration at 10 min
Nc1nc(/C(=N/OCC(=O)O)C(=O)NC2C(=O)N3C(C(=O)[O-])=C(C[n+]4ccc5sc(N)nc5c4)CS[C@H]23)cs1 (stereo partly shown) [Ig] | ng/mL | 21000
C=CCO/N=C(\C(=O)NC1C(=O)N2C(C(=O)[O-])=C(C[n+]3ccc4scnc4c3)CSC12)c1csc(N)n1 (stereo not shown) [Ic] | ng/mL | 18000
CO/N=C(\C(=O)NC1C(=O)N2C(C(=O)[O-])=C(C[n+]3ccc4sc(N(C)C)nc4c3)CS[C@H]12)c1csc(N)n1 (stereo partly shown) [Iu] | ng/mL | 18000
CC(C)(O/N=C(\C(=O)NC1C(=O)N2C(C(=O)[O-])=C(C[n+]3ccc4scnc4c3)CS[C@H]12)c1csc(N)n1)C(=O)O (stereo partly shown) [Id] | ng/mL | 16000
C#CCO/N=C(\C(=O)NC1C(=O)N2C(C(=O)[O-])=C(C[n+]3ccc4sc(N)nc4c3)CS[C@H]12)c1csc(N)n1 (stereo partly shown) [If] | ng/mL | 14000

Lab book: concentration at 10 min of CO/N=C(\C(=O)NC1C(=O)N2C(C(=O)[O-])=C(C[n+]3ccc4sc(C=O)nc4c3)CSC12)c1csc(N)n1 (stereo not shown) [Iw] noted as 20000

Lab book: concentration at 10 min of Nc1nc(/C(=N/OC2(C(=O)O)CCC2)C(=O)NC2C(=O)N3C(C(=O)[O-])=C(C[n+]4ccc5sc(N)nc5c4)CS[C@H]23)cs1 (stereo partly shown) [Ik] noted as 20000

Lab book: concentration at 10 min of CCO/N=C(\C(=O)NC1C(=O)N2C(C(=O)[O-])=C(C[n+]3ccc4scnc4c3)CSC12)c1csc(N)n1 (stereo not shown) [Ib] noted as 15000

Lab book: concentration at 10 min of CO/N=C(\C(=O)NC1C(=O)N2C(C(=O)[O-])=C(C[n+]3ccc4sc(C)nc4c3)CSC12)c1csc(N)n1 (stereo not shown) [Ih] noted as 16000

Lab book: concentration at 10 min of CO/N=C(\C(=O)NC1C(=O)N2C(C(=O)[O-])=C(C[n+]3ccc4sc(NC(=O)N5CCCC5)nc4c3)CS[C@H]12)c1csc(N)n1 (stereo partly shown) [It] noted as 19000

Lab book: concentration at 10 min of CO/N=C(\C(=O)NC1C(=O)N2C(C(=O)[O-])=C(C[n+]3ccc4sc(SC)nc4c3)CSC12)c1csc(N)n1 (stereo not shown) [Ii] noted as 14000

Lab book: concentration at 10 min of Cc1nc2c[n+](CC3=C(C(=O)[O-])N4C(=O)C(NC(=O)/C(=N\OC5(C(=O)O)CCC5)c5csc(N)n5)[C@H]4SC3)ccc2s1 (stereo partly shown) [Im] noted as 13000

Lab book: concentration at 10 min of CO/N=C(\C(=O)NC1C(=O)N2C(C(=O)[O-])=C(C[n+]3ccc4sc(NC(=O)OC)nc4c3)CS[C@H]12)c1csc(N)n1 (stereo partly shown) [Is] noted as 19000
